biological target: BRPF1 (Homo sapiens); assay: BROMOscan ligand-binding assay; settings: KD, BRPF1
property.measured: pKd
Remember the convention: pKd equals -log10 of concentration in molar.

O=C(O)c1ccccc1O [Salicylic Acid]; 2.38

Below: the item to evaluate.
Q. I have this compound here, CCC(=O)N1CCOc2c(cc(-c3ccc(OC)c(OC)c3)cc2OCC2CCCN(C)C2)C1 (stereo not drawn) [I-CBP112] , and I need its recorded pKd.
A. 4.70

* * *

biological target: BAZ2A (Homo sapiens); test: BROMOscan ligand-binding assay; settings: BROMOscan Gene Symbol BAZ2A
Sequence (Q9UIF9 1793-1897 limits assumed): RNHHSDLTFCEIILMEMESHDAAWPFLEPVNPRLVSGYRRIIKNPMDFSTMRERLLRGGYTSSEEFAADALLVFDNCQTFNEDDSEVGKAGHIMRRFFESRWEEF
property.measured: Kd

COc1ccc(CCc2nc3cc(-c4c(C)noc4C)ccc3n2CCN2CCOCC2)cc1; 75 µM

Below: the item to evaluate.
Q. I have this molecule here, Cc1noc(C)c1-c1ccc2c(c1)nc(CCc1ccccc1)n2CCN1CCOCC1 , and I need its recorded Kd.
A. 55 µM

* * *

target: BRDT(2) (Homo sapiens, UniProt Q58F21); assay: BROMOscan ligand-binding assay
property.measured: Kd

Q. I have this compound here, CCCS(=O)(=O)c1nc(NC2CC2)cc(-c2ccc3c(ccn3C3CC(C)(C)NC(C)(C)C3)c2)n1 [NVS-CECR2-1] , and I need its recorded Kd.
A. > 30 µM

* * *

Readings of Kd for the listed molecules
target: UniProt:Q86U86; test: BROMOscan ligand-binding assay; conditions: KD (BROMOscan), sheet prints no unit (nM)
Sequence (Q86U86 653-763 limits assumed): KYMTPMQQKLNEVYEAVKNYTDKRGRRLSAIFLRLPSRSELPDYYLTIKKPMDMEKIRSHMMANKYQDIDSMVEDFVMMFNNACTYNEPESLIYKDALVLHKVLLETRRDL

CCC(=O)N1CCOc2c(cc(-c3ccc(OC)c(OC)c3)cc2OCC2CCCN(C)C2)C1 (centres unmarked); > 30000 nM

Below: the item to evaluate.
Q. Query the reported Kd for UniProt:Q86U86; item: CCCOc1ccn2c(C(C)=O)cc(-c3ccccc3S(C)(=O)=O)c2c1
A. > 30000 nM

* * *

Biological target: BRPF3 (Homo sapiens)
Sequence (Q9ULD4 589-693 limits assumed): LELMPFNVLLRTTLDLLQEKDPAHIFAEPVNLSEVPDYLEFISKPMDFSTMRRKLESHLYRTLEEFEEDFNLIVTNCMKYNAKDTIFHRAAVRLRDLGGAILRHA
Experiment: BROMOscan ligand-binding assay
Details: KD, BRPF3
property.measured: Kd

CCC(=O)N1CCOc2c(cc(-c3ccc(OC)c(OC)c3)cc2OCC2CCCN(C)C2)C1 (stereo not drawn) [I-CBP112]; 95 µM
O=C(O)c1ccccc1O [Salicylic Acid]; > 14000 µM

Below: the item to evaluate.
Q. Query the reported Kd for BRPF3 (Homo sapiens); item: O=C(C=CN1CC2CC1CN2c1ccccn1)c1ccccc1O (stereo not drawn) [PFI-3]
A. > 100 µM

* * *

Readings of activity at 1 µM for the listed molecules
molecular target: GCN5L2 (Homo sapiens, UniProt Q92830); test: Histone acetyltransferase (HAT) activity assay; format: biochemical; details: 1µM; read-out: HATs Activity (%);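 also: selectivity screen of BRD probe compounds across a panel of histone acetyltransferases, HAT activity in % with compound at 1 or 10 µM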
Sequence (Q92830 whole entry, species assumed): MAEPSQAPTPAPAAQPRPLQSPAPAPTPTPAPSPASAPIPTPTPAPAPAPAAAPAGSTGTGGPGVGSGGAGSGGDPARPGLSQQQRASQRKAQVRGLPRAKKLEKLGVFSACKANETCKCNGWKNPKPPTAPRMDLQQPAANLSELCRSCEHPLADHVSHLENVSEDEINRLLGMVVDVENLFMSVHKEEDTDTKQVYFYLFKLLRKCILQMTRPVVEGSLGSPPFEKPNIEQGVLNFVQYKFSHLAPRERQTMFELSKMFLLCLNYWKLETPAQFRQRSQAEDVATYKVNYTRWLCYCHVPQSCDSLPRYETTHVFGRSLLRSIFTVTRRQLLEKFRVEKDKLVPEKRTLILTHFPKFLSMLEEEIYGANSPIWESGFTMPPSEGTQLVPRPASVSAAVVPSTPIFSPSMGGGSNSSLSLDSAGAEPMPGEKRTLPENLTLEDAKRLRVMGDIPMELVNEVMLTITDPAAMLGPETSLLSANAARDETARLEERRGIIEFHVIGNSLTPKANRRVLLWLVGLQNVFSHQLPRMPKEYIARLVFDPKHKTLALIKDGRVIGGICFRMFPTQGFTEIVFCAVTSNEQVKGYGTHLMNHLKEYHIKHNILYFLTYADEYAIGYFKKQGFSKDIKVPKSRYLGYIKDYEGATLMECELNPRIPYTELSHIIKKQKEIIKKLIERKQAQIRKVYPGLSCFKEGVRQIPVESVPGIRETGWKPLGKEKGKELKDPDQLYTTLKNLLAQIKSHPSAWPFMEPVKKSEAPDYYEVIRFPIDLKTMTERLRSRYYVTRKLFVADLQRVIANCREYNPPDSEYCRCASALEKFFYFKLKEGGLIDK
Give just the numeric value; % need not be written.

CN1C[C@H](Nc2cnn(C)c(=O)c2Br)C[C@H](c2ccccc2)C1; 99
CCC(=O)N1CCOc2c(cc(-c3ccc(OC)c(OC)c3)cc2OCC2CCCN(C)C2)C1 (stereo not shown); 105
COc1ccc(CCc2nc3cc(-c4c(C)noc4C)ccc3n2C[C@H](C)N2CCOCC2)cc1Cl; 101

Below: the item to evaluate.
Q. I have this molecule here, CC(=O)c1cc(-c2cc(C(=O)NC3CC3)ccc2C)c2ncccn12 , and I need its recorded activity at 1 µM.
A. 94

* * *

molecular target: MYST3 (Homo sapiens, UniProt Q92794); assay: Histone acetyltransferase (HAT) activity assay; type: biochemical; settings: 10µM; read-out: HATs Activity (%);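 also: selectivity screen of bromodomain probe compounds across a panel of histone acetyltransferases, read out as enzyme activity in %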
Sequence (Q92794 whole entry, species assumed): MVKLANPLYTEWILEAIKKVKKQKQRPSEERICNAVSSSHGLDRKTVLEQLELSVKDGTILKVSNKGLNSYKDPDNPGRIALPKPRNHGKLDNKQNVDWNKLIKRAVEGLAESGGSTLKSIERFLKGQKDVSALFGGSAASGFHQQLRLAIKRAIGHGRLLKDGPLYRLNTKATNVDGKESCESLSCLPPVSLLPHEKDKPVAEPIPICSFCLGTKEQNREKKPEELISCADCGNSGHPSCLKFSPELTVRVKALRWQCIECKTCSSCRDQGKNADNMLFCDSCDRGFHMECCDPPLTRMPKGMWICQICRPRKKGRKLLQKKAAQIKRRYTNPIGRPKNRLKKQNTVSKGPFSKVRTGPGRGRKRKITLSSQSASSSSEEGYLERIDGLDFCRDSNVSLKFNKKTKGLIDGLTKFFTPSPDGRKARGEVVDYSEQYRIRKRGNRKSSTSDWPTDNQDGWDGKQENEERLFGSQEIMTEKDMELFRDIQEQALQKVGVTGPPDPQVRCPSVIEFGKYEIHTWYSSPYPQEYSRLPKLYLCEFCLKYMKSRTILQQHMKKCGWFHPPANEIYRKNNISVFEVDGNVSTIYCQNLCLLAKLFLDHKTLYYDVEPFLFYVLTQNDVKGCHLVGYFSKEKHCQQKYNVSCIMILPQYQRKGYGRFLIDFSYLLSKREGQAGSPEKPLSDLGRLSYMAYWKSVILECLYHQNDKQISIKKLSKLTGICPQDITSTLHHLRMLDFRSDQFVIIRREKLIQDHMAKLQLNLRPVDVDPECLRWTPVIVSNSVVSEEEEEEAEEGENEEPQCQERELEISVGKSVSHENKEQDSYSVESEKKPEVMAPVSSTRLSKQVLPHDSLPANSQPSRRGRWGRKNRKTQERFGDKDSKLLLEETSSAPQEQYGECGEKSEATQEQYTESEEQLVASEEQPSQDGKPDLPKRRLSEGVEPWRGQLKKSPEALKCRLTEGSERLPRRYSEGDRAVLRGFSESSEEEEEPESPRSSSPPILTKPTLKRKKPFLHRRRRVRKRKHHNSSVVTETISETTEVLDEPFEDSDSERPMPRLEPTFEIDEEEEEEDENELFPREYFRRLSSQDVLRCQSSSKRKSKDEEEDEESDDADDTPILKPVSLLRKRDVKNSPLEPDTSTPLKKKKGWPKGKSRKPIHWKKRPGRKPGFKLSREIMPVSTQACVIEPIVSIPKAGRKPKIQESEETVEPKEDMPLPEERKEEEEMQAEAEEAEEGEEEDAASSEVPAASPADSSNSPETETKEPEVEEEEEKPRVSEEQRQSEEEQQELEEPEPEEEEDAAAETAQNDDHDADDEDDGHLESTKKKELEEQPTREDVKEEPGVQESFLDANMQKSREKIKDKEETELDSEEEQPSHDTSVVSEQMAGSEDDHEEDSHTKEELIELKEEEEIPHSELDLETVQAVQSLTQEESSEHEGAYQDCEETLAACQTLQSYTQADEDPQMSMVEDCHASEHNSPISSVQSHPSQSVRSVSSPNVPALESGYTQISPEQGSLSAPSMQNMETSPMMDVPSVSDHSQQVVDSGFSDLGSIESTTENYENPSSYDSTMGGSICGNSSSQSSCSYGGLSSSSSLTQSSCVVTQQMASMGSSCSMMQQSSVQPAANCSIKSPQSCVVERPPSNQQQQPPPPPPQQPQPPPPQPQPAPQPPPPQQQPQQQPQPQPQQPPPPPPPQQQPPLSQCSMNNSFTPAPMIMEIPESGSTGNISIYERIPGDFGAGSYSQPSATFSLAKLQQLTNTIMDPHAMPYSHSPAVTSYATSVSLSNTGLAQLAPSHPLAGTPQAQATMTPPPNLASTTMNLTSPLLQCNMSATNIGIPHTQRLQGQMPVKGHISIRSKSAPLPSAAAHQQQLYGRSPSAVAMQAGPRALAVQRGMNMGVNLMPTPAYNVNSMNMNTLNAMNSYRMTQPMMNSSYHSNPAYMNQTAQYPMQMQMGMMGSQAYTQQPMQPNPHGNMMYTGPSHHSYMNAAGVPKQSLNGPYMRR
Readings of activity at 10 µM for the listed compounds
Give just the numeric value; % need not be written.

CC(=O)c1cc(-c2cc(C(=O)NC3CC3)ccc2C)c2ncccn12; 98

Q. I have this compound here, CN1C[C@H](Nc2cnn(C)c(=O)c2Br)C[C@H](c2ccccc2)C1 , and I need its recorded activity at 10 µM.
A. 101

Q. I have this compound here, CCC(=O)N1CCOc2c(cc(-c3ccc(OC)c(OC)c3)cc2OCC2CCCN(C)C2)C1 (centres unmarked) , and I need its recorded activity at 10 µM.
A. 99

Q. I have this compound here, Cc1c(NC(=O)c2cc(C(N)=O)nc3cc(F)ccc23)c(C(F)(F)F)nn1Cc1ccc(C#N)cc1 , and I need its recorded activity at 10 µM.
A. 101

Q. I have this compound here, COc1cc(-c2cn(C)c(=O)c3cnccc23)c(OC)cc1CN(C)C , and I need its recorded activity at 10 µM.
A. 100

* * *

Readings of pKd for the listed compounds
molecular target: BRD8(1) (Homo sapiens); assay: BROMOscan ligand-binding assay; conditions: BRD8(1)
Sequence (Q9H0E9 706-811 limits assumed): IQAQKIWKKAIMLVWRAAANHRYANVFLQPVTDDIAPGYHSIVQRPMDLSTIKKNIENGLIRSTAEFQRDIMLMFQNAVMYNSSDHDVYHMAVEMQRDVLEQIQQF
pKd: −log10 of the molar value.

COc1cc(C#N)ccc1S(=O)(=O)Nc1ccc2c(c1)cc(C)c(=O)n2C; < 4.30

Below: the item to evaluate.
Q. I have this compound here, COc1cc2c(cc1NS(=O)(=O)c1ccc(Br)cc1C)n(C)c(=O)n2C , and I need its recorded pKd.
A. < 4.30

* * *

target: BRPF1 (Homo sapiens, UniProt P55201); experiment: BROMOscan ligand-binding assay; conditions: KD, BROMOscan Gene Symbol BRPF1
Sequence (P55201 628-732 limits assumed): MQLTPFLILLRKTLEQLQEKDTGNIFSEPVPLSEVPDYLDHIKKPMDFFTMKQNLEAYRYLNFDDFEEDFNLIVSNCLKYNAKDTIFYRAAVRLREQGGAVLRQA
property.measured: Kd
Report the figure along with its unit, number first.

CCCOc1ccn2c(C(C)=O)cc(-c3ccccc3S(C)(=O)=O)c2c1 [GSK2801]; 14 µM

Below: the item to evaluate.
Q. Query the reported Kd for BRPF1 (Homo sapiens, UniProt P55201); item: CCOC(=O)Nc1cc(-c2ccc(C)c(NS(C)(=O)=O)c2)nn2c(C)nnc12 [Bromosporine]
A. 0.6 µM

* * *

biological target: TAF1L(2) (Homo sapiens, UniProt Q8IZX4); test: BROMOscan ligand-binding assay
Sequence (Q8IZX4 1517-1626 limits assumed): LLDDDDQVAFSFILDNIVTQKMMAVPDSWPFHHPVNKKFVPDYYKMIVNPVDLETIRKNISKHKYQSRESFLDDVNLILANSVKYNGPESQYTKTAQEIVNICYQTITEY
Readings of Kd for the listed molecules
Give just the numeric value; µM need not be written.

Observe how each entry below is paired with its result.
COc1ccc(CCc2nc3cc(-c4c(C)noc4C)ccc3n2C[C@H](C)N2CCOCC2)cc1Cl; 7.1
CCC(=O)N1CCOc2c(cc(-c3ccc(OC)c(OC)c3)cc2OCC2CCCN(C)C2)C1 (centres unmarked); 52
CCCS(=O)(=O)c1nc(NC2CC2)cc(-c2ccc3c(ccn3C3CC(C)(C)NC(C)(C)C3)c2)n1; 9.6

Below: the item to evaluate.
Q. Query the reported Kd for TAF1L(2) (Homo sapiens, UniProt Q8IZX4); item: CCCOc1ccn2c(C(C)=O)cc(-c3ccccc3S(C)(=O)=O)c2c1
A. 5.1

* * *

Readings of Kd for the listed compounds
molecular target: UniProtKB P21675; assay: BROMOscan ligand-binding assay; details: BROMOscan, TAF1(2)
Sequence (P21675 1519-1628 limits assumed): as the sequence (Q8IZX4 1517-1626 limits assumed) above, with M46V, V51M, I102V, I107L counted along it

Cc1cc(=O)n(C)c2cc(N3C(=O)CC[C@H](NS(=O)(=O)CC(C)C)[C@H]3c3ccc(Cl)cc3)ccc12; > 50 µM

Q. I have this compound here, O=C(C=CN1[C@H]2CC[C@@H]1c1ncnc(NC3CC3)c1C2)c1ccccc1O [PFI-3 D1] , and I need its recorded Kd.
A. > 30 µM

* * *

target: BRPF3 (Homo sapiens, UniProt Q9ULD4); assay: BROMOscan ligand-binding assay; conditions: read-out: KD (BROMOscan); sheet prints no unit (nM)
property.measured: Kd

Cc1noc(C)c1-c1ccc2c(c1)nc(CCc1ccccc1)n2CCN1CCOCC1 [CBP30-298]; > 30000 nM

Q. I have this compound here, COc1ccc(CCc2nc3cc(-c4c(C)noc4C)ccc3n2CCN2CCOCC2)cc1 [CBP30-383] , and I need its recorded Kd.
A. > 30000 nM

* * *

Readings of pKd for the listed molecules
target: UniProt O95696; assay: BROMOscan ligand-binding assay
Sequence (O95696 562-666 limits assumed): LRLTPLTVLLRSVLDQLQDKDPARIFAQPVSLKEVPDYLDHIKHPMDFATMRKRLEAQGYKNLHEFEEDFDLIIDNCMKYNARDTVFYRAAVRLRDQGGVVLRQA
Remember the convention: pKd equals -log10 of concentration in molar.

Observe how each entry below is paired with its result.
COc1ccc(CCc2nc3cc(-c4c(C)noc4C)ccc3n2C[C@H](C)N2CCOCC2)cc1Cl; 4.68
CCCOc1ccn2c(C(C)=O)cc(-c3ccccc3S(C)(=O)=O)c2c1; 4.22

Below: the item to evaluate.
Q. I have this molecule here, CCC(=O)N1CCOc2c(cc(-c3ccc(OC)c(OC)c3)cc2OCC2CCCN(C)C2)C1 (centres unmarked) , and I need its recorded pKd.
A. 4.29

* * *

target: CECR2 (Homo sapiens, UniProt Q9BXF3); assay: BROMOscan ligand-binding assay; details: KD (BROMOscan), sheet prints no unit (nM)
Sequence (Q9BXF3 434-538 limits assumed): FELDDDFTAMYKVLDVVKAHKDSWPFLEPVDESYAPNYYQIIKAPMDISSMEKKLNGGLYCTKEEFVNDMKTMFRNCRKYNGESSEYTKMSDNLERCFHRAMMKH
property.measured: Kd

Q. Query the reported Kd for CECR2 (Homo sapiens, UniProt Q9BXF3); item: O=C(C=CN1CC2CC1CN2c1ccccn1)c1ccccc1O (stereo not shown) [PFI-3]
A. > 30000 nM

* * *

Target: BRPF3 (Homo sapiens)
Assay: Temperature shift assay (non-BRD reader domains)
Format: binding
Conditions: 10µM compound
Procedure: Temperature shift assays have been described by Fedorov et al.[46]. Recombinant protein domains (bromodomain or kinases) at a concentration of 2 μM in 10 mM HEPES, pH 7.5, and 500 mM NaCl were mixed with 10 μM of chemical probes. Temperature-dependent protein unfolding profiles were measured using a Real-Time PCR Mx3005p machine (Stratagene). Wu et al., Supplementary figures and tables 14 Supplementary Table 3: Selectivity screening data (non-BRD reader domains): […] reader domains. […]
Sequence (Q9ULD4 1076-1159 limits assumed, species assumed): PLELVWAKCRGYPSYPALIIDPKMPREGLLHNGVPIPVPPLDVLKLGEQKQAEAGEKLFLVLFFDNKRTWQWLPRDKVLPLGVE
property.measured: Tm (C) 10µM, temperature shift (Kelvin)
Give just the numeric value; Kelvin need not be written.

Observe how each entry below is paired with its result.
Cc1c(NC(=O)c2cc(C(N)=O)nc3cc(F)ccc23)c(C(F)(F)F)nn1Cc1ccc(C#N)cc1; -0.3
CN(C)CCCOc1ccc(-c2cc(NCCCn3cccn3)nc(S(C)(=O)=O)n2)cc1; 0.2

Q. I have this compound here, Cc1nnc2c3ccccc3c(N[C@@H](C)[C@H](c3ccccc3)N(C)C)nn12 , and I need its recorded Tm (C) 10µM, temperature shift.
A. 1.0

Q. I have this compound here, COc1cc(Cl)c(C(=O)N[C@@H](CN[C@H]2CC[C@@H](N)CC2)Cc2ccc(C#N)cc2)cc1-c1ccc(CN[C@H](C)c2ccc(C)cc2)o1 , and I need its recorded Tm (C) 10µM, temperature shift.
A. -0.4

Q. I have this compound here, CO[C@H]1CNC[C@@H](OCC2CCC(F)(F)CC2)[C@@H]1Nc1ncc(-c2cncc(C)c2)c2cc(C)c(=O)[nH]c12 , and I need its recorded Tm (C) 10µM, temperature shift.
A. -0.2

Q. I have this compound here, CCC(=O)N1CCOc2c(cc(-c3ccc(OC)c(OC)c3)cc2OCC2CCCN(C)C2)C1 (centres unmarked) , and I need its recorded Tm (C) 10µM, temperature shift.
A. 0.0

Q. I have this compound here, CN1C[C@H](Nc2cnn(C)c(=O)c2Br)C[C@H](c2ccccc2)C1 , and I need its recorded Tm (C) 10µM, temperature shift.
A. -0.3

Q. I have this compound here, Cc1cc2c(cc1N1C(=O)c3cccc4c(CCCO)ccc(c34)C1=O)n(C)c(=O)n2C , and I need its recorded Tm (C) 10µM, temperature shift.
A. 1.5
